Assay overview: protein stability index of a GFP-peptide fusion (yeast GPS) (PSI 1-4); higher = more stable; sorted into four equal gates, so the index is relative within each strain
Condition: san1∆
# label = true if protein stability index >= 3 else false

Would you say SQHKKILEELDFVRNEL [SMC3] shows protein stability index at minimum 3? true

# bool: protein stability index of KFILSGFIFTSMILEAI [RRI2] >= 3 false

For this sequence, is measured protein stability index 3 or higher? EKIKMKLKQGQKLFVQV [GAL11] true

Evaluate DRHIGCVYSGLIPDGRH [PRE10] : protein stability index at minimum 3? true

Reported protein stability index reaches at least 3 for ESGSTPISISNAPTFNP [YAR002W/NUP60] ? false

Confirm if protein stability index reported for the sequence KIMNVTTDSLTKVLQAD [YMR129W/POM152] is 3 or above. true

For this sequence, is measured protein stability index 3 or higher? RLNNVFVIGEQGKPYIS [RPS4A] true

Form field: protein stability index at least 3? Entry: VQEMALGGPITKESQPT [FAS2] false

# bool: protein stability index of VVIEKRRKKILNEIELD [GRR1] >= 3 false

Hello, I need to know if RNVGKTLVNKSTGLKSA [RPS1A] has measured protein stability index not below 3. Thanks! false

Does protein stability index meet or surpass 3 for FVFQTVFDTAITSWYEN [QCR9] ? false

Check this sequence for protein stability index at or above 3: GAQFSRSYDLTRHQNTI [RPN4] false

protein stability index >= 3 for QNDELTMGMRALLKLSV [DIS3] ? false

Tell me whether protein stability index is at least 3 here: EISLKAHCILGIGGDHA [RPC40] false

Entry EDEDDGESEKSSDVDMD [RPC53] : is its protein stability index no less than 3? true

Is the recorded value of protein stability index equal to or greater than 3 for this sequence? IEKSRLFSEKTIRYLMQ [SNF6] false

Check the entry QETQHGNITRGLAVGLA [RPN2] : does protein stability index equal or exceed 3? false

Please tell me: is the sequence NDIHLRFMRFLADRDEF [ECM29] at or over 3 in terms of protein stability index? false

Is it the case that FGAKPEEQKSSDTSKPA [YJL041W/NSP1] has protein stability index reaching or exceeding 3? true

Quick check, protein stability index >= 3? ETIKMKELDQELIIDPL [BRN1] false

Does protein stability index meet or surpass 3 for TRFEVELEFIQSLANIQ [SOH1] ? false

Quick check: does SGTSSDPDTKKVKESPA [YIL149C/MLP2] have protein stability index greater than or equal to 3? true

Is reported protein stability index greater than or equal to 3 here: KLAFGLTKLNEDDLVGV [TAF14] true

Hello, I need to know if SNDERIVKRLYEYGAVS [BRR2] has measured protein stability index not below 3. Thanks! true

Check the entry DKFPYKKLELPKYIDEL [SWP82] : does protein stability index equal or exceed 3? false

# bool: protein stability index of LAVLALVIVKKGEQELE [RPS6A] >= 3 false

Textbook exercise: given the entry KVVKTPGGILRAQHVKK [RPL34A] , state whether its protein stability index is greater than or equal to 3. false

Check this sequence for protein stability index at or above 3: VVSLKEGMFANANRVFR [SMC2] true

Check this sequence for protein stability index at or above 3: MDIMEDFLRYINIKYLR [SNF2] false

Form field: protein stability index at least 3? Entry: ALKDPQTDADRVKDPQW [RIP1] true

Exam item: decide whether the reported protein stability index for NQLVEPNRIKLSKEVPF [SRB5] is at least 3. false

Tell me whether protein stability index is at least 3 here: SYLETLTALGKEKEKER [MED2] false

Can ASDESLLRYGGAFTIAL [RPN2] be said to have protein stability index at or above 3? true

Does protein stability index meet or surpass 3 for NIGETAGVVQDIGSDPT [RPB9] ? false

Decide: protein stability index of AGNSQITSGGFLLKAYI [SRB5] >= 3? false

Confirm if protein stability index reported for the sequence RNSNPENTVGLISGAGA [RPN10] is 3 or above. false

Form field: protein stability index at least 3? Entry: GDDEATEIISTLSNGLI [BRR2] true

Determine whether measured protein stability index meets or exceeds 3 for GISDMCRLFFTELASKD [YCS4] false

Hi, just wondering whether SVFGFRTQFGGGKSVGF [RPS24A] shows protein stability index of 3 or higher. true

Could you verify whether the entry NYNHLLPTRYTLDVEAF [RPL27A] shows protein stability index of no less than 3? false

protein stability index >= 3 for NPNSTAITADLGSSEAE [YGL172W/NUP49] ? false

Given LTGEAEIEQPVTTFVFT [FAS1] , state whether its protein stability index is at least 3. false

Given the entry NKVCRIEAASTTQDQCK [RPB8] , answer whether its protein stability index meets or surpasses 3. false

Please indicate if the recorded protein stability index for NDNEGKHISASIDNDFS [YAR002W/NUP60] meets or exceeds 3. true

Does AEYAQLLAKRLSERKAE [RPS6A] have a reported protein stability index of at least 3? false

Tell me whether protein stability index is at least 3 here: QQLRRALPDVVVKGLPD [RPO31] false

hey, is protein stability index for this one >= 3? SLKGLQSKLKDVVEYLD [RPN8] false

Could you tell me if the measured protein stability index of TAVLSTTARAKARAKKT [RPN2] reaches 3 or more? true

Decide: is the reported value of protein stability index for LLTCYELEKKYHGNECE [SRB8] equal to or greater than 3? true

protein stability index >= 3 for IFTCQIMNLITNEPCGA [RPN4] ? false

Is reported protein stability index greater than or equal to 3 here: DYVVAPGVNREINSEMC [GRR1] true

Assess whether reported protein stability index for ILQQRSKINSTELLDYA [MED4] sits at 3 or higher. false

Is the recorded value of protein stability index equal to or greater than 3 for this sequence? CEKWAASSWAKKIAQRE [RPL14A] false
